B1: library; a variant is named by its letters at N, in order (parent)
chain: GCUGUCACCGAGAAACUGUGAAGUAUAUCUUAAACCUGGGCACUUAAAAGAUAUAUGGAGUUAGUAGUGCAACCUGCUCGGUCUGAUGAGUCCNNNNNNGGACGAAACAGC

Variants of: B1
assaySummary: FACS-Seq fitted mean relative fluorescence mCherry/BFP without ligand (log10 relative fluorescence); HEK293T; ligand: cyclic di-GMP (c-di-GMP-II aptamer); higher = higher reporter protein expression
conditionDetails: ligand present: no
observable: FACS-Seq fitted mean (log10)
Please reply with the number alone, leaving off any unit.

Req: Recorded FACS-Seq fitted mean (log10) of `GACAGA` , please.
Resp: -0.179

Req: Recorded FACS-Seq fitted mean (log10) of `GACUUA` , please.
Resp: -0.438

Req: Recorded FACS-Seq fitted mean (log10) of `UGACGC` , please.
Resp: -0.22

Req: Recorded FACS-Seq fitted mean (log10) of `ACCCUG` , please.
Resp: -0.354

Req: Recorded FACS-Seq fitted mean (log10) of `UGUGGG` , please.
Resp: -0.327

Req: Recorded FACS-Seq fitted mean (log10) of `CAGACU` , please.
Resp: -0.00398

Req: Recorded FACS-Seq fitted mean (log10) of `CCACCU` , please.
Resp: -0.368

Req: Recorded FACS-Seq fitted mean (log10) of `CGAUAU` , please.
Resp: -0.508

Req: Recorded FACS-Seq fitted mean (log10) of `UAGACU` , please.
Resp: -0.164

Req: Recorded FACS-Seq fitted mean (log10) of `UACAAC` , please.
Resp: 0.031

Req: Recorded FACS-Seq fitted mean (log10) of `AAGCGA` , please.
Resp: -0.459

Req: Recorded FACS-Seq fitted mean (log10) of `CGAAAC` , please.
Resp: -0.432

Req: Recorded FACS-Seq fitted mean (log10) of `CGGGAA` , please.
Resp: -0.636

Req: Recorded FACS-Seq fitted mean (log10) of `UCGAUU` , please.
Resp: -0.335
